Taken from PubChem BioAssay AID1159580.

List of normalized growth values.
# protocol.details: chemical genetic growth profiling, strain panel (AID 1159580);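 note: tested at 20 µM; growth read once vehicle control cultures reached saturation at 30 °C; 1 = growth at the plate median or of vehicle wells; lower values mean less growth of the strain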
# particulars: S. cerevisiae deletion strains, growth OD, locus YEL061C, strain CIN8, active compounds read low
Out of some 5,500 compounds screened, about 2,000 (36%) were called active. Not shown: some 18% with an inconclusive outcome. The list shows a part of the results.

# compound, normalized growth
records = [
    ("Cc1oc(-c2ccccc2)cc1C(=O)N1CCN(c2ccc(C(F)(F)F)cn2)CC1", "0.947 (inactive)"),
    ("O=S(=O)(O)c1cccc2cccc(Cl)c12", "0.998 (inactive)"),
    ("CCCCC(=O)O[C@H]1CCC2C3CCc4cc(O)ccc4C3CC[C@@]21C (some centres not stated)", "0.985 (inactive)"),
    ("Cc1ccc(C(=O)NNC(=O)c2ccncc2)c(C)c1", "0.993 (inactive)"),
    ("N/C(=N/OC(=O)C(Cl)Cl)c1cccc(Cl)c1Cl", "0.997 (inactive)"),
    ("CC(C)CCCC(C)C1CCC2C3CCC4CC(=O)CCC4(C)C3CCC12C (configuration not stated)", "1.02 (inactive)"),
    ("c1ccc2c(c1)-c1cccc3cccc-2c13", "0.787 (active)"),
    ("Cc1cc(N=CNO)c2ccccc2n1", "0.999 (inactive)"),
    ("CC(=O)OC1CCC2C3CCc4cc(O)ccc4C3CCC12C (configuration not stated)", "0.998 (inactive)"),
    ("CC(C)(O)CC[C@@H](O)[C@](C)(O)C1CC[C@@]2(O)C3=CC(=O)C4C[C@@H](O)[C@@H](O)C[C@]4(C)C3CC[C@]12C (some centres not stated)", "1 (inactive)"),
    ("COC(=O)c1c(OC)ccc(N=CNO)c1OC", "1.01 (inactive)"),
    ("CCCCC/C=C\\C/C=C\\C/C=C\\C/C=C\\CCCC(=O)O", "0.982 (inactive)"),
]
